# tested on: [35S]-TBPS binding to rat brain cortical membranes in the presence of 5 μM GABA (GABA receptor complex)
# method notes: Steroid inhibition of [35S]-TBPS binding (radioligand displacement)
# measurement setup: 3 nM [35S]-TBPS
pIC50: −log10 of the molar value.

{"columns": ["compound", "pIC50"],
 "data": [
  ["COC[C@]12CC[C@@](C)(O)C[C@H]1CC[C@H]1[C@@H]3CC[C@H](C(=O)Cn4nnc5cccc(OC)c54)[C@@]3(C)CC[C@@H]12 [Compound 29]", "> 8.00"],
  ["COC[C@]12CC[C@@](C)(O)C[C@@H]1CC[C@H]1[C@@H]3CC[C@H](C(=O)Cn4cc([S+](C)[O-])cn4)[C@@]3(C)CC[C@@H]12 (stereo partly drawn) [Compound 35]", "< 6.30"],
  ["COC[C@]12CC[C@@](C)(O)C[C@H]1CC[C@H]1[C@@H]3CC[C@H](C(=O)Cn4nc5ccc(Cl)c(F)c5n4)[C@@]3(C)CC[C@@H]12 [Compound 24]", "> 8.00"],
  ["COC[C@]12CC[C@@](C)(O)C[C@@H]1CC[C@H]1[C@@H]3CC[C@H](C(=O)Cn4nnc5c(F)c(Cl)ccc54)[C@@]3(C)CC[C@@H]12 [Compound 51]", "> 8.00"],
  ["COC[C@]12CC[C@@](C)(O)C[C@@H]1CC[C@H]1[C@@H]3CC[C@H](C(=O)Cn4cc(SC)cn4)[C@@]3(C)CC[C@@H]12 [Compound 34]", "7.30 to 8.00"],
  ["COC[C@]12CC[C@@](C)(O)C[C@H]1CC[C@H]1[C@@H]3CC[C@H](C(=O)Cn4ncc5ccc(F)cc54)[C@@]3(C)CC[C@@H]12 [Compound 15]", "> 8.00"],
  ["COC[C@]12CC[C@@](C)(O)C[C@H]1CC[C@H]1[C@@H]3CC[C@H](C(=O)Cn4nc5ccc(OC)cc5n4)[C@@]3(C)CC[C@@H]12 [Compound 27]", "> 8.00"],
  ["COC[C@]12CC[C@@](C)(O)C[C@@H]1CC[C@H]1[C@@H]3CC[C@H](C(=O)Cn4cc(C(=O)O)nn4)[C@@]3(C)CC[C@@H]12 [Compound 82]", "< 6.30"],
  ["CC(C)OC[C@]12CC[C@@](C)(O)C[C@H]1CC[C@H]1[C@@H]3CC[C@H](C(=O)Cn4nnc5c(F)c(F)ccc54)[C@@]3(C)CC[C@@H]12 [Compound 68]", "> 8.00"],
  ["CC(C)OC[C@]12CC[C@@](C)(O)C[C@H]1CC[C@H]1[C@@H]3CC[C@H](C(=O)Cn4nnc5ccc(F)c(F)c54)[C@@]3(C)CC[C@@H]12 [Compound 69]", "> 8.00"],
  ["COC[C@]12CC[C@@](C)(O)C[C@H]1CC[C@H]1[C@@H]3CC[C@H](C(=O)Cn4nnc5ccccc54)[C@@]3(C)CC[C@@H]12 [Compound 18]", "> 8.00"],
  ["COC[C@]12CC[C@@](C)(O)C[C@H]1CC[C@H]1[C@@H]3CC[C@H](C(=O)Cn4cc5ccncc5n4)[C@@]3(C)CC[C@@H]12 [Compound 46]", "7.30 to 8.00"]
]}

---

Recorded IC50, one value per entry.
# tested on: [35S]-TBPS binding to rat brain cortical membranes in the presence of 5 μM GABA (GABA receptor complex)
# method notes: Steroid inhibition of [35S]-TBPS binding (radioligand displacement)
# measurement setup: 3 nM [35S]-TBPS
endpoint name: IC50

{"columns": ["smiles", "result"],
 "data": [
  ["COC[C@]12CC[C@@](C)(O)C[C@@H]1CC[C@H]1[C@@H]3CC[C@H](C(=O)Cn4ncc(CO)n4)[C@@]3(C)CC[C@@H]12", "> 500 nM"],
  ["COC[C@]12CC[C@@](C)(O)C[C@H]1CC[C@H]1[C@@H]3CC[C@H](C(=O)Cn4nnc5c(OC)cccc54)[C@@]3(C)CC[C@@H]12", "< 10 nM"],
  ["COC[C@]12CC[C@@](C)(O)C[C@@H]1CC[C@H]1[C@@H]3CC[C@H](C(=O)Cn4ncc(C(=O)O)n4)[C@@]3(C)CC[C@@H]12", "> 500 nM"],
  ["COC[C@]12CC[C@@](C)(O)C[C@H]1CC[C@H]1[C@@H]3CC[C@H](C(=O)Cn4cc5ccc(F)cc5n4)[C@@]3(C)CC[C@@H]12", "< 10 nM"],
  ["CC(C)OC[C@]12CC[C@@](C)(O)C[C@H]1CC[C@H]1[C@@H]3CC[C@H](C(=O)Cn4nc5ccc(F)c(F)c5n4)[C@@]3(C)CC[C@@H]12", "< 10 nM"],
  ["COC[C@]12CC[C@@](C)(O)C[C@H]1CC[C@H]1[C@@H]3CC[C@H](C(=O)Cn4cc(SC)cn4)[C@@]3(C)CC[C@@H]12", "< 10 nM"]
]}
